B1: WEE1 (parent)
chain: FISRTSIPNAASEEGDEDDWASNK

- Variants of: B1
- test_method_notes: protein stability index of a GFP-peptide fusion (GPS, HEK-293T) (PSI 1-6); higher = more stable;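 also: lentivirally expressed fusions sorted by FACS into six bins by GFP to DsRed ratio, PSI derived from sequencing read proportions per bin multiplied by bin number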
- measurement_setup: c terminus: a fixed tail appended
Each item that follows carries a reported protein stability index.
No unit in the answer, only the number.

Example entries begin here.
G15E: 4.62
T5V: 3.86
E17G: 3.75

Attention now turns to another entry.
Retrieve protein stability index measured for K24F and print it.
4.04

Cited source for all entries: the supplement of paper PMC10567573
